Data origin: the RNAGym collection of RNA variant scans (doi:10.1073/pnas.2313332121)

B1: TPR t1 (parent)
chain: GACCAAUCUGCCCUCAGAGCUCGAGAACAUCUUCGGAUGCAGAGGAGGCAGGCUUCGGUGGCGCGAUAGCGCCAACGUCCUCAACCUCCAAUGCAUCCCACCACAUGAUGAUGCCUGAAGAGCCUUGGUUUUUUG

Variants of: B1
Assay protocol: polymerase ribozyme fitness, log enrichment relative to wild type (log ratio); higher = more active; in vitro selection for triplet polymerase activity
We use -4 as the dividing line for polymerase ribozyme fitness (log ratio): on or above the line is criterion met, below is criterion not met.

| Changes | Classification |
| --- | --- |
| C22A G60C C73U | criterion not met |
| G10C C70G | criterion met |
| C56A A83G A84C G135C | criterion met |
| G63A C102A | criterion met |

## Task Say whether C12G C94U G110C G127C shows polymerase ribozyme fitness (log ratio) of -4 or more.
## Result criterion not met

## Task Kindly determine if polymerase ribozyme fitness (log ratio) recorded for C49U C76G is above or exactly -4.
## Result criterion met

## Task // inclusive: polymerase ribozyme fitness (log ratio) at least -4? input: A41C G42C G63U G127C
## Result criterion not met

## Task Entry C53U C72G G113C U129A : is its polymerase ribozyme fitness (log ratio) no less than -4?
## Result criterion not met

## Task Has U96A U116G U130A a recorded polymerase ribozyme fitness (log ratio) greater than or equal to -4?
## Result criterion met

## Task Form field: polymerase ribozyme fitness (log ratio) at least -4? Entry: U30C C101U A111C
## Result criterion met
